test description: Effect on proliferation of HEL-F (Pharmacological Test 2, Machida et al. method)
Type: cell-based, human
conditions used: human, hel-f cells
reported metric: CC50 at 96 h (µg/mL)
One number for each entry, in µg/mL.

State the recorded CC50 at 96 h for this entry: Nc1ncnc2c1ncn2[C@@H]1O[C@H](CO)[C@@H](O)[C@@H]1O [araA, arabinofuranosyladenine, reference compound]
4

###

System: HSV-2
test description: Anti-HSV-2 activity (Pharmacological Test 3)
Format: cell-based, type-2 herpes (HSV-2)
conditions used: Test 3
For each of the compounds below, state its Anti-HSV-2 VR.

Take a look at these entries with their results.
compound: O=c1[nH]c(=O)n([C@@H]2O[C@H](CO)[C@@H](O)[C@@H]2O)cc1/C=C/Br
Anti-HSV-2 VR: 0.9
//
compound: O=c1[nH]c(=O)n([C@@H]2O[C@H](CO)[C@@H](O)[C@@H]2O)cc1/C=C/Cl
Anti-HSV-2 VR: 0.2
//
compound: C=Cc1cn([C@@H]2O[C@H](CO)[C@@H](O)[C@@H]2O)c(=O)[nH]c1=O [5-vinyl-araU, 5-vinylarabinofuranosyluracil, reference compound]
Anti-HSV-2 VR: 2.7

Any idea what its Anti-HSV-2 VR is? The compound is O=c1[nH]c(=O)n([C@H]2C[C@H](O)[C@@H](CO)O2)cc1/C=C/Br [5-bromovinyl-dUrd, 5-bromovinyl-2'-deoxyuridine, reference compound]
0.7

###

test description: Anti-HEL-F, cell proliferation (Pharmacological Test 3)
Format: cell-based, human
conditions used: human, hel-f cells
reported metric: CC50 at 96 h (µg/mL)
Answers are plain numbers, in µg/mL.

molecule: C=Cc1cn([C@@H]2O[C@H](CO)[C@@H](O)[C@@H]2O)c(=O)[nH]c1=O [5-vinyl-araU, 5-vinylarabinofuranosyluracil, reference compound]
CC50 at 96 h, µg/mL: 650

The record that follows has no CC50 at 96 h shown yet.
# input molecule: O=c1[nH]c(=O)n([C@@H]2O[C@H](CO)[C@@H](O)[C@@H]2O)cc1/C=C/Cl ; wanted: its CC50 at 96 h
1000

###

test description: Effect on proliferation of HEL-F (Pharmacological Test 2, Machida et al. method)
Assay type: cell-based, human
conditions used: human, hel-f cells; HEL-F under proliferation, incubated for 4 days, Test 2; read-out: ID50 (50% inhibition of proliferation)
For each record, write down the corresponding CC50 at 96 h.

Solved cases (2 shown):
molecule: O=c1[nH]c(=O)n([C@H]2C[C@H](O)[C@@H](CO)O2)cc1I [IDU, 5-iodo-2'-deoxyuridine, reference compound]
reported metric: CC50 at 96 h
reported: 6 mg/L
//
molecule: O=c1[nH]c(=O)n([C@@H]2O[C@H](CO)[C@@H](O)[C@@H]2O)cc1/C=C/Br
reported metric: CC50 at 96 h
reported: > 1000 mg/L

// below: CC50 at 96 h requested for another molecule
State the recorded CC50 at 96 h for this entry: O=c1[nH]c(=O)n([C@@H]2O[C@H](CO)[C@@H](O)[C@@H]2O)cc1/C=C/Cl
> 500 mg/L

###

Please go through the items and note down their VR (virus rating).
System: HSV-1, VR-3
test description: Anti-virus activity on HEL-F, HSV-1 VR-3 (Pharmacological Test 1, Sidwell et al. method)
Format: cell-based, herpes simplex virus type 1 VR3 strain
conditions used: HSV-1 VR-3, HEL-F, Test 1
Give bare numbers.

compound: O=c1[nH]c(=O)n([C@H]2C[C@H](O)[C@@H](CO)O2)cc1I [IDU, 5-iodo-2'-deoxyuridine, reference compound]
reported: 2.4

For each entry beneath this line, provide reported VR (virus rating).
1. Nc1ncnc2c1ncn2[C@@H]1O[C@H](CO)[C@@H](O)[C@@H]1O [araA, arabinofuranosyladenine, reference compound]
2. O=c1[nH]c(=O)n([C@@H]2O[C@H](CO)[C@@H](O)[C@@H]2O)cc1/C=C/Cl [5-chlorovinyl-araU]
3. O=c1[nH]c(=O)n([C@@H]2O[C@H](CO)[C@@H](O)[C@@H]2O)cc1/C=C/Br [5-bromovinyl-araU]

1: 1.9; 2: 3.3; 3: 3.8
